These data points were gathered from paper PMC6792352.

# experimental.protocol: in vitro
# assay.conditions: rat, gh3-tre-luc cells, AC50 (uM) modified / 1000
Structures can show the parent of a compound that is named as a salt.

{"columns": ["compound", "CC50 at 24 h"],
 "data": [
  ["O=P(O)(O)OC[C@H](O)CO", "> 50 µM"],
  ["CN1[C@@H]2CCC[C@H]1C[C@@H](NC(=O)c1nn(C)c3ccccc13)C2 [Granisetron hydrochloride]", "> 50 µM"],
  ["CCCc1nn(C)c2c(=O)[nH]c(-c3cc(S(=O)(=O)N4CCN(C)CC4)ccc3OCC)nc12 [Sildenafil citrate]", "> 50 µM"],
  ["C=CC1=C(C)c2cc3[nH]c(cc4nc(cc5[nH]c(cc1n2)c(C)c5CCC(=O)O)C(CCC(=O)O)=C4C)c(C)c3C=C [Protoporphyrin disodium]", "> 50 µM"],
  ["O=C(O)c1cccc(C(F)(F)F)c1", "> 90 µM"],
  ["O=C(N[C@H](CO)[C@H](O)c1ccc([N+](=O)[O-])cc1)C(Cl)Cl", "> 90 µM"],
  ["ClCCCl", "> 90 µM"],
  ["CCSCC [Diethyl sulfide]", "> 100 µM"],
  ["CCCCCCCCCCCCCC[n+]1ccc(C)cc1 [Miripirium chloride]", "7.5 µM"],
  ["C[C@H]1[C@H](OC(=O)CCC(=O)O)O[C@@H]2O[C@@]3(C)CC[C@H]4[C@H](C)CC[C@@H]1[C@@]24OO3 [Artesunate]", "2.69 µM"],
  ["Oc1c(Cl)cc(Cl)c(Cl)c1Cl", "71.8 µM"],
  ["CCOC(=O)c1c(N)sc2c1CCN(Cc1ccccc1)C2", "> 50 µM"],
  ["C[C@]12CC[C@@H]3c4ccc(O)cc4CC[C@H]3[C@@H]1C[C@@H](O)[C@@H]2O", "> 90 µM"],
  ["Oc1ccc2ccccc2c1", "> 90 µM"],
  ["C=CCN(CC=C)CC=C", "> 90 µM"],
  ["Cc1ccc(-c2ncc(Cl)cc2-c2ccc(S(C)(=O)=O)cc2)cn1", "> 50 µM"],
  ["Nc1nc(O)c2ncn(COC(CO)CO)c2n1", "> 20 µM"],
  ["C=CCCCCCCCCCCCC", "> 90 µM"],
  ["ClCC=CCCl", "> 90 µM"],
  ["N#CCc1ccccc1 [Benzyl cyanide]", "> 90 µM"],
  ["O=C(O)CCCc1ccccc1 [Sodium 4-phenylbutyrate]", "> 50 µM"]
]}
